Ref: patent US20250177353A1

Test: SAD phase I study: plasma pharmacokinetics of 2,4-dinitrophenol after Compound 1 (Table 3)
Type: in vivo, human
Details: human, oral, single dose 500 mg Compound 1, Fed, read-out: t1/2, Median (converted)
quantity_kind: half-life (h)
Lab book: enter the figure in h, no units written.

Enquiry: # query: half-life of entry O=[N+]([O-])c1ccc(O)c([N+](=O)[O-])c1
Return: 31.2
